- ASSAY SYSTEM: T1, rat collagen (acid soluble, type I, rat tail, Upstate 08-115) (rat, UniProt P02454 152-1207; P02466 86-1125)
- T1 construct: also called dried rat collagen; insoluble rat collagen
- T1 sequence (P02454 152-1207 limits assumed, chain 1 of 2): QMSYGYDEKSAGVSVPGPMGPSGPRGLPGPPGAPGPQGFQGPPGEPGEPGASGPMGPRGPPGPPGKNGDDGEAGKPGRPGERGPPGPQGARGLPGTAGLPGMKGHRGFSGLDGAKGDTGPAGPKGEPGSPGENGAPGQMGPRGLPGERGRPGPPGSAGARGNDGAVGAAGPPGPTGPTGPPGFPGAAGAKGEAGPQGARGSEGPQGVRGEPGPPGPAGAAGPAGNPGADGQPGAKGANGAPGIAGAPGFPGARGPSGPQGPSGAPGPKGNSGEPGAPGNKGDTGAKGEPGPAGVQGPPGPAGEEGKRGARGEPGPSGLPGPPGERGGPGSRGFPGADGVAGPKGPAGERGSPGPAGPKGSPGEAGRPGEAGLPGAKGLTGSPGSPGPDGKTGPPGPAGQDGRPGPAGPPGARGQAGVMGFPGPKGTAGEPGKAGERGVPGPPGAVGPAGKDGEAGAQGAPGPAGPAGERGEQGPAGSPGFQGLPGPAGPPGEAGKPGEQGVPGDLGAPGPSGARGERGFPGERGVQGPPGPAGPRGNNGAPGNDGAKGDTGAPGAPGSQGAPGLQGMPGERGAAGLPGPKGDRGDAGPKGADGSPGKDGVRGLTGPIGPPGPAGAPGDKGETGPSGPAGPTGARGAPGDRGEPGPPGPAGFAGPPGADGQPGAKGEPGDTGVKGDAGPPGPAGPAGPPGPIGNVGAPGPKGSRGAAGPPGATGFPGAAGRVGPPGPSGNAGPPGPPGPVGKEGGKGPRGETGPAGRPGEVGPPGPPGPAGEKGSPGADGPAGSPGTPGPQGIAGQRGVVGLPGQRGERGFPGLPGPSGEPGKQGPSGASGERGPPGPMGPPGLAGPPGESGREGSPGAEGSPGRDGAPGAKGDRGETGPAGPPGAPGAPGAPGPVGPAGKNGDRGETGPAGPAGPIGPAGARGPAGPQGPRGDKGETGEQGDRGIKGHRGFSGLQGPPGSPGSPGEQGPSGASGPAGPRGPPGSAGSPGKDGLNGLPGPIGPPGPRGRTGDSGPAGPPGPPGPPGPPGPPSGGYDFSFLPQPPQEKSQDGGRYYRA
- T1 sequence (P02466 86-1125 limits assumed, chain 2 of 2): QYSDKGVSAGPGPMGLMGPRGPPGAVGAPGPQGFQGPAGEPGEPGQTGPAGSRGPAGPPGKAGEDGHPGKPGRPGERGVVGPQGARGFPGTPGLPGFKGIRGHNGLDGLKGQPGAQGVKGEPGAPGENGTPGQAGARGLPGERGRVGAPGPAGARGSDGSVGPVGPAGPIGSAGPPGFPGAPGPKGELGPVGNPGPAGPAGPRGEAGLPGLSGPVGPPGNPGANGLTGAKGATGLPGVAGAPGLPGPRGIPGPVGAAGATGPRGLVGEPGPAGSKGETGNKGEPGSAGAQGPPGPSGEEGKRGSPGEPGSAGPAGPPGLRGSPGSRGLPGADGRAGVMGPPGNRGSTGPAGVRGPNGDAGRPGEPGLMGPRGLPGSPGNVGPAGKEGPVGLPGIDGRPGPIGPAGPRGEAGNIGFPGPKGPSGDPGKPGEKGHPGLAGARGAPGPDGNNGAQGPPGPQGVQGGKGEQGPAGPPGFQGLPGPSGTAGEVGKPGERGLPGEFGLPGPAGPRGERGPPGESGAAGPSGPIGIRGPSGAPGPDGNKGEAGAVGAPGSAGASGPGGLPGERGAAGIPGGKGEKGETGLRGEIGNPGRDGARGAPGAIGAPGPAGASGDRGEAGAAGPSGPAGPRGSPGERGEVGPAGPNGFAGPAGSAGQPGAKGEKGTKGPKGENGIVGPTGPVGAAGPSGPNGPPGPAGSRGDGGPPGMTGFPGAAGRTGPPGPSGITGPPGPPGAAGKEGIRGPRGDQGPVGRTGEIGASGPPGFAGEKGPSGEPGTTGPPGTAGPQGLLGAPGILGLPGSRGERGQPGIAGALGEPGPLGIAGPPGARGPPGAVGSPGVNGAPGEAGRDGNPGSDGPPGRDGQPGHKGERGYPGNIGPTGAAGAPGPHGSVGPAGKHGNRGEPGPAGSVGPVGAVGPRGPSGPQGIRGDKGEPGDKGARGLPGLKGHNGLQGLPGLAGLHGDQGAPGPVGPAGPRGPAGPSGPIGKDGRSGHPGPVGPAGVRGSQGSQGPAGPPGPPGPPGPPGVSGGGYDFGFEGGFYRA
- EXPERIMENT NOTES: dried collagen assay
Bridge positions count the residues as written; N and C are the ends. Square brackets hold non-standard residues; d marks the D form. Primed or numbered codes have the meaning given here. Ends that are not written are not given here. * marks the point of attachment. Orn = NCCC[C@H](N)C(=O)O; Gd^T″ = GdDTPA-thiourea; Cbz = O=C(OCc1ccccc1)*
We begin with a simple list: items and their reported % bound.
OBSERVABLE: % bound (%)

• GQWHCTTRFPHHYXLYG (not fully specified; Gd^T-GQWHCTTRFPHHY-Pen-LYG) [Comp ID 906] = 5
• Cbz-GQWHCT[Orn](Gd^T″)RFPHHYCLYG (disulfide 5-14; not fully specified (C-terminus); printed as cbz-GQWHCT-Orn(Gd^T)-RFPHHYCLYG) [Comp ID 941] = 5
• GQWHCTTSFPHHYCLYG (not fully specified; Gd^T-GQWHCTTSFPHHYCLYG) [Comp ID 869] = 37
